assay_target: T1, human CD123 on CHO cells (Homo sapiens, UniProt P26951)
T1 construct: expressed in transfected cells; host or cells: CHO cells
T1 sequence (P26951 19-378): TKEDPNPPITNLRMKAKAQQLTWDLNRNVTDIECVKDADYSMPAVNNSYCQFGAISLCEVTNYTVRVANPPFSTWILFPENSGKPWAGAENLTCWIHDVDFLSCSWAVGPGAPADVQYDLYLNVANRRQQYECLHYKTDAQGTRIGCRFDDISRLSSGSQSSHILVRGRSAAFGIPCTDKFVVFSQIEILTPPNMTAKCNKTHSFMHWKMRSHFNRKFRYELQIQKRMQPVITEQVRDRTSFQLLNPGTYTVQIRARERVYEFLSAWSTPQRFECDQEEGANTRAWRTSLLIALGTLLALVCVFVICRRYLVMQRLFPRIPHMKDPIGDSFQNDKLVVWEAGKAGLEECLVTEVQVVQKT
protocol_description: Flow cytometry binding of IgG antibodies to CD123 expressing CHO cells
settings: 4-parameter logistic model
metric: HillSlope
Please reply with the value in numeric form only.

In: Identify HillSlope associated with the molecule 32716 IgG: parental (mouse) anti-CD123 antibody 32716 VH/VL (SEQ ID NO: 74/75) cloned into human IgG format (antibody, V domains shown, human IgG constant regions) VH: QIQLVQSGPELKKPGETVKISCKASGYIFTNYGMNWVKQAPGKSFKWMGWINTYTGESTYSADFKGRFAFSLETSASTAYLHINDLKNEDTATYFCARSGGYDPMDYWGQGTSVTVSS VL: DIVLTQSPASLAVSLGQRATISCRASESVDNYGNTFMHWYQQKPGQPPKLLIYRASNLESGIPARFSGSGSRTDFTLTINPVEADDVATYYCQQSNEDPPTFGAGTKLELK
Out: 2.2
